B1: TPR t1 (parent)
chain: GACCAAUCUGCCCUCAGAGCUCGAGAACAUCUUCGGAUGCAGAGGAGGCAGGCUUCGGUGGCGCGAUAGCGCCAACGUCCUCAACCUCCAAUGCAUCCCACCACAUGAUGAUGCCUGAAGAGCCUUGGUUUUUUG

variants of: B1; assay: polymerase ribozyme fitness, log enrichment relative to wild type (log ratio); higher = more active; in vitro selection for triplet polymerase activity
Decision: polymerase ribozyme fitness (log ratio) >= -1 yields 1.0, all other cases yield 0.0.

The examples below pair each entry with its known result.
INSERT INTO assay_data (biosequence, assigned_label) VALUES
  ('GACCAAUCUGCCCUCAGAGCUCGAGAACAUCUUCGGAUGCAGAGGAGGCAGGCUUCGGUGGCGCGAUAGCCCCAACGUCCUCAACCUCCAAUGCAGCCCACCACAUGAUGAUGCCUGAAUAGCCUUGGUUUUUUG [G71C U96G G120U]', 0.0),
  ('GACCAAUCUGACCUCAGAGCUCGAGAACAUCUUCGGAUGCAGAGGAGGCAUGCUUCGGUGGCGCGAUAGCGCCAACGUCCUCAAUCUCCAAUGCAUCCCACCACAUGAUGAUGCCUGAACAGCCUUGGUUUUUUG [C11A G51U C85U G120C]', 0.0),
  ('GAGCAAUCUGCCCUCAGAGCUCGAGAACAUCUUCGUAUGCAGAGGAGGCAGGCUUCGGUGGCGCGAUAGCGGCAACGUCCUCAACAUCCAAUGCAUCCGACCACAUGAUGAGGCCUGAAGAGCCUUGGCUUUUGG [C3G G36U C72G C86A C99G U112G U129C U134G]', 0.0),
  ('GACCAAUCUGCCCUCAGAGCUCGAGAACAUCUUCGGAUGCAGAGGAGGCAUGCUUCGGUGGCGCGAUAGCUCCAACGUGCUCAACCUCCAAUGCAUCCCACCACAUGAUGAUGCCUGAAGAGCCUUGGUUUUUUG [G51U G71U C79G]', 0.0),
  ('GACCAAUCUGCCCUCAGAGCUCGAGGACAUCUUCGGAUGCAGAGGAGGCAGGCUUCGGUGACGCGAUAGCGCCAACGUCCUAAACCUCCAAUGCAUCCCACCACAUGAUGAAGCCUGAAGAGCCUUGGUUCUUUG [A26G G61A C82A U112A U131C]', 1.0);

Given the entry GACCAAUCUGUCCUCAGAGCUCGAGAACAUCUUCGGAUUCAGAGGAGGCAGGCUUCGGUGGCGCGAUAGCGCCAACGUCCUCAACGUCCAAUGCAUCCCACCACAUGAUGAUGCCUGAAGAGCCUUGGUUUUUUG [C11U G39U C86G] , answer whether its polymerase ribozyme fitness (log ratio) meets or surpasses -1.
0.0

Has GACCAAUCUGCUCUCAGAGCUCGAGAACAUCUUCGGAUGGAGAGGAGGCAGGCUUCGGUGGCGCGAUAGCGCCAACGUCCUCAACCUCCAAUGCAUCCCACCACAUGAUGAUGCCUGAAGAGCCUUGGUUUUUUG [C12U C40G] a recorded polymerase ribozyme fitness (log ratio) greater than or equal to -1?
1.0

Does GACCAAUCUGCCCUCAGAGCUCGAGAACAUCUUCGGAUGCAGAGGAGGCAGGCUUCGGUGGCGUGAUAGCGCCAACGUCCUCAACCUCCAAUGCAUCCCACCAGAUGAAGAUGCCUGAAGAGCCUUGGUUUUUUG [C64U C104G U109A] have a reported polymerase ribozyme fitness (log ratio) of at least -1?
0.0

Check this variant for polymerase ribozyme fitness (log ratio) at or above -1: GACCAAUCUGCCCUCAGAGCUCGAGAACAUCUUCGAAUGCAGUGGAGGCAGGCUUCGGUGGUGCGAUAGCGCCAACGUCCUCAACCUCCAAUGCAUCCCACCACAUGAUGAUACCUGAAGAGCCUUGGUUUUUUG [G36A A43U C62U G113A]
0.0

Quick check: does GACCAAGCUGCCCUCAGAGCUCGAGAACAUCUUCGGAUGCAGAGGAGGCAGGCUUCGGUGGCGCGAUAGAGUCAACGUCCUCAACCUCCAAUCCAUCCCACCACAUGAUGAUGCUUGAAGAGCCUUGGUUUUUUG [U7G C70A C72U G93C C115U] have polymerase ribozyme fitness (log ratio) greater than or equal to -1?
0.0

Please indicate if the recorded polymerase ribozyme fitness (log ratio) for GACCAAUCUGCCCUCAGAGCUCGAGAACAUCUUCGGAUGCAGAGGAGGCAGGCUUCGGAGGCGCGAUAGCGCCAACGUCCUCAACCUCUAAUGCAUCCCACCACAUGAUGAUGCCUGAAGAGCAAUGGUUUUUUG [U59A C89U C124A U125A] meets or exceeds -1.
1.0
